molecular target: endothelin-converting enzyme (ECE) (Homo sapiens, UniProt P42892); assay: In vitro investigation of the ECE-inhibitory effect (recombinant human ECE in CHO cell membrane fraction); details: 24 μM synthetic peptide substrate, pH 7.0, 37° C., 60 min
Sequence (P42892 whole entry): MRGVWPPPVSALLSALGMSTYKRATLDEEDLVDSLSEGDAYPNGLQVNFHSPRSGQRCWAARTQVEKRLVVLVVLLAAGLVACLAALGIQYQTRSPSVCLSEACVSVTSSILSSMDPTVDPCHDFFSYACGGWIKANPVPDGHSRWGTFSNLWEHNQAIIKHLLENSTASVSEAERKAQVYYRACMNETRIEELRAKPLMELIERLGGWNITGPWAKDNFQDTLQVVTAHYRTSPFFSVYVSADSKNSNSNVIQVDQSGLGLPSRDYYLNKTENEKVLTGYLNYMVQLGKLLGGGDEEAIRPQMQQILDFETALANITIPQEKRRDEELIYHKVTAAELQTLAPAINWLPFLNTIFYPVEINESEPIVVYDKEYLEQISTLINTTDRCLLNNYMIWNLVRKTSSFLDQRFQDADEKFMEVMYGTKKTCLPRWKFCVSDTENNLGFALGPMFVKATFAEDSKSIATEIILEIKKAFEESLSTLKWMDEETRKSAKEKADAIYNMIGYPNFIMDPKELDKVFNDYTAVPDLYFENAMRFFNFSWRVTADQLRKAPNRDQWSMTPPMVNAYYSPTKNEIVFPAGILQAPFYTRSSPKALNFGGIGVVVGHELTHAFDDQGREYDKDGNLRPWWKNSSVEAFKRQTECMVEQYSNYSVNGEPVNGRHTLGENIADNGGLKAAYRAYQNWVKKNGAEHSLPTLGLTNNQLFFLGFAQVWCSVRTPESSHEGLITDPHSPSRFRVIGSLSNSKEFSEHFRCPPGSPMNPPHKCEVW
recorded.metric: IC50 (nM)
Answer with a number only, understood to be in nM.

A selection of reference data follows.
O=C(O)CN1C(=O)C(NC(=O)C2(CC(Cc3cccc4ccccc34)C(=O)O)CCCC2)CCc2ccccc21 (stereo not drawn) | 2200
O=C(O)CN1C(=O)[C@@H](NC(=O)C2(C[C@@H](CCc3cccc4ccccc34)C(=O)O)CCCC2)CCc2ccccc21 | 520

Now for the compound whose IC50 we want.
System endothelin-converting enzyme (ECE) (Homo sapiens, UniProt P42892). Read-out IC50. Item `O=C(O)CN1C(=O)[C@@H](NC(=O)C2(C[C@@H](CCc3ccccc3)C(=O)O)CCCC2)CCc2ccccc21` . Report value.
1290

###

target: UniProt P08473; assay: In vitro investigation of the NEP-inhibitory effect (hydrolytic degradation of met-enkephalin); settings: substrate met-enkephalin, 37° C., pH 7.4
Sequence (P08473 whole entry): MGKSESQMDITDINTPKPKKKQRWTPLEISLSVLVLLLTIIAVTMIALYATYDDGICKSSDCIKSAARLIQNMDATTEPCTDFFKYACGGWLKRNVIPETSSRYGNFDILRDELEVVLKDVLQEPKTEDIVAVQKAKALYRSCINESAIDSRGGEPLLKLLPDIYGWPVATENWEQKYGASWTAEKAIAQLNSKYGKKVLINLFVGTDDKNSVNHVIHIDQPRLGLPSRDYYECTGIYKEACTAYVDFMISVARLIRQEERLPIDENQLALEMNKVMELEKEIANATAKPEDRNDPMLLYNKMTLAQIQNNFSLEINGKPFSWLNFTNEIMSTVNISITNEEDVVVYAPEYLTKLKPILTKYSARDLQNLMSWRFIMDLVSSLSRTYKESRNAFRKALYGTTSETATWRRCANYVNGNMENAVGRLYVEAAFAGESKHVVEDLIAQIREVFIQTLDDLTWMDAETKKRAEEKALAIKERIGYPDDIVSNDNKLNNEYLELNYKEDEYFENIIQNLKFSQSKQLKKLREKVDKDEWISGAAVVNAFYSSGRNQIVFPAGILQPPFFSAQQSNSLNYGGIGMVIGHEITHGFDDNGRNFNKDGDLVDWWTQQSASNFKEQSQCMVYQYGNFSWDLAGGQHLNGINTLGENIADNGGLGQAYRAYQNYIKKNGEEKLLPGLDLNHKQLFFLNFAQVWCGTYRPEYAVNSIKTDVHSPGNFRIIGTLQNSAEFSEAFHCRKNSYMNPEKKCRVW
pKi: −log10 of the molar value.
Rule: TRUE for pKi not less than 9, FALSE for anything less.

COCCOC[C@H](CC1(C(=O)N[C@H]2CCc3ccccc3N(CC(=O)O)C2=O)CCCC1)C(=O)O | FALSE

Decide: pKi of `O=C(O)CN1C(=O)[C@@H](NC(=O)C2(C[C@@H](CCc3ccccc3)C(=O)O)CCCC2)CCc2ccccc21` >= 9?
TRUE

Decide: pKi of `COCCOC[C@H](CC1(C(=O)N[C@H]2COc3ccccc3N(CC(=O)O)C2=O)CCCC1)C(=O)O` >= 9?
FALSE

###

target: UniProtKB P08473; assay: In vitro investigation of the NEP-inhibitory effect (hydrolytic degradation of met-enkephalin); settings: substrate met-enkephalin, 37° C., pH 7.4
recorded.metric: pKi
Expect pKi as a plain number equal to -log10 of the molar concentration.

A selection of reference data follows.
O=C(O)CN1C(=O)C(NC(=O)C2(CC(CCOc3ccc(F)cc3)C(=O)O)CCCC2)CCc2ccccc21 (centres unmarked) | 8.91
O=C(O)CN1C(=O)C(NC(=O)C2(CC(CCc3cccc4ccccc34)C(=O)O)CCCC2)CCc2ccccc21 (centres unmarked) | 9.00
O=C(O)CN1C(=O)C(NC(=O)C2(CC(CCc3ccccc3)C(=O)O)CCCC2)CCc2ccccc21 (centres unmarked) | 9.17
O=C(O)CN1C(=O)[C@@H](NC(=O)C2(CC(CCOc3ccc(F)cc3)C(=O)O)CCCC2)CSc2ccccc21 (some centres unmarked) | 9.12

Now for the molecule whose pKi we want.
System UniProtKB P08473. Read-out pKi. Item O=C(O)CN1C(=O)[C@@H](NC(=O)C2(CC(Cc3ccccc3)C(=O)O)CCCC2)CCc2ccccc21 (some centres unmarked) . Report value.
8.97

Value source: patent US5677297A
